Target: bovine trypsin (Bos taurus)
Sequence (P00760 24-246): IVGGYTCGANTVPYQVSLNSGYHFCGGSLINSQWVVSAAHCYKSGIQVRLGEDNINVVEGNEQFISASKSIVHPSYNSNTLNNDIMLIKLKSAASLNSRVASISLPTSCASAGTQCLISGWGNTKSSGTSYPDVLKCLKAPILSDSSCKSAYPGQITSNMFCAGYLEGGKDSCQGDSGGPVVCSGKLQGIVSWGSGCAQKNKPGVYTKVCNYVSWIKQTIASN
Experiment: Trypsin inhibitory activity of peptides (BApNA hydrolysis, OD405; IC50, Ki, residual activity)
Type: biochemical
Conditions: peptide 0.00098 μM
Bridge positions count the residues as written; N and C are the ends. Square brackets hold non-standard residues; d marks the D form. Peptide text beside a SMILES is read from it. Nle = CCCC[C@H](N)C(=O)O
readout: Residual trypsin activity (%)
Answers are plain numbers, in %.

Reference set, count: 4
| molecule | endpoint_result |
| --- | --- |
| CC[C@H](C)[C@@H]1NC(=O)[C@@H]2CCCN2C(=O)[C@@H]2CCCN2C(=O)[C@H]([C@@H](C)CC)NC(=O)[C@H](CO)NC(=O)[C@H](CCCCN)NC(=O)[C@H]([C@@H](C)O)NC(=O)[C@@H](NC(=O)[C@@H](N)CCCNC(=N)N)CSSC[C@@H](C(=O)N[C@@H](Cc2ccccc2)C(=O)O)NC1=O [BT45] (H-RCTKSIPPICF-OH; disulfide 2-10; C-terminus assumed) | 104.3 |
| CC[C@H](C)[C@@H]1NC(=O)[C@@H]2CCCN2C(=O)[C@@H]2CCCN2C(=O)[C@H]([C@@H](C)CC)NC(=O)[C@H](CO)NC(=O)[C@H](CCCCN)NC(=O)[C@H]([C@@H](C)O)NC(=O)[C@H](CO)NC(=O)[C@H](CCCNC(=N)N)NC(=O)CNC(=O)[C@@H](N)CSSC[C@@H](C(=O)N[C@@H](Cc2ccccc2)C(=O)O)NC1=O [BT47] (H-CGRSTKSIPPICF-OH; disulfide 1-12; C-terminus assumed) | 105.1 |
| CCCC[C@@H]1NC(=O)[C@H](CCCNC(=N)N)NC(=O)CNC(=O)[C@@H](N)CSSC[C@@H](C(=O)N[C@@H](Cc2ccccc2)C(=O)O)NC(=O)[C@H]([C@@H](C)CC)NC(=O)[C@@H]2CCCN2C(=O)[C@@H]2CCCN2C(=O)[C@H]([C@@H](C)CC)NC(=O)[C@H](CO)NC(=O)[C@H](CCCCN)NC(=O)[C@H]([C@@H](C)O)NC1=O [BT50] (H-CGR[Nle]TKSIPPICF-OH; disulfide 1-12; C-terminus assumed) | 108.5 |
| CCCC[C@@H]1NC(=O)[C@H](CO)NC(=O)[C@H](CCCCN)NC(=O)[C@H]([C@@H](C)O)NC(=O)[C@H](C)NC(=O)[C@H](CCCNC(=N)N)NC(=O)CNC(=O)[C@@H](N)CSSC[C@@H](C(=O)N[C@@H](Cc2ccccc2)C(=O)O)NC(=O)[C@H]([C@@H](C)CC)NC(=O)[C@@H]2CCCN2C(=O)[C@@H]2CCCN2C1=O [BT28] (H-CGRATKS[Nle]PPICF-OH; disulfide 1-12; C-terminus assumed) | 102.3 |

Moving on to the next molecule.
Need Residual trypsin activity, item CC[C@H](C)[C@@H]1NC(=O)[C@@H]2CCCN2C(=O)[C@@H]2CCCN2C(=O)[C@H]([C@@H](C)CC)NC(=O)[C@H](CO)NC(=O)[C@H](CCCCN)NC(=O)[C@H]([C@@H](C)O)NC(=O)[C@H](C)NC(=O)[C@H](CCCNC(=N)N)NC(=O)CNC(=O)[C@@H](N)CSSC[C@@H](C(=O)N[C@@H](Cc2ccccc2)C(=O)O)NC1=O [BT9] (H-CGRATKSIPPICF-OH; disulfide 1-12; C-terminus assumed)
100.4
